reported metric: GI50 (nM)
// note: answer is a bare numeric in nM

Query: Give MOLM-13 GI50 for O=C(Nc1cccc(Cl)c1)Nc1nnc(Sc2ncnc3oc(-c4ccccc4)c(-c4ccccc4)c23)s1
Reply: 404

Query: Field: GI50 (MOLM-13). Entry: O=C(Nc1ccc(Br)cc1)Nc1nnc(Sc2ncnc3oc(-c4ccccc4)c(-c4ccccc4)c23)s1
Reply: 723

Query: Observed GI50 on MOLM-13 for O=C(Nc1cccc(F)c1)Nc1nnc(Sc2ncnc3oc(-c4ccccc4)cc23)s1 , please.
Reply: 190

Query: Please tell me: GI50 of COc1cccc(NC(=O)Nc2nnc(Sc3ncnc4oc(-c5ccccc5)cc34)s2)c1 , system MOLM-13?
Reply: 79

Query: Please tell me: GI50 of O=C(Nc1ccccc1)Nc1nnc(Sc2ncnc3oc(-c4ccccc4)c(-c4ccccc4)c23)s1 , system MOLM-13?
Reply: 110

Query: # value lookup — system MOLM-13, readout GI50, item O=C(Nc1nnc(Sc2ncnc3oc(-c4ccccc4)c(-c4ccccc4)c23)s1)Nc1ccccc1Br
Reply: 427

Query: Reported GI50 for MOLM-13, given COc1ccc(NC(=O)Nc2nnc(Sc3ncnc4oc(-c5ccccc5)c(-c5ccccc5)c34)s2)cc1 ?
Reply: 83

Query: // map O=C(Nc1nnc(Sc2ncnc3oc(-c4ccccc4)c(-c4ccccc4)c23)s1)Nc1ccc(F)cc1F to recorded GI50 (system: MOLM-13)
Reply: 164

Query: Value wanted: GI50 (MOLM-13) of entry O=C(Nc1ccc(Cl)cc1)Nc1nnc(Sc2ncnc3oc(-c4ccccc4)c(-c4ccccc4)c23)s1
Reply: 452

Query: Request: GI50, test system MOLM-13, entry COc1ccc(NC(=O)Nc2nnc(Sc3ncnc4oc(-c5ccccc5)cc34)s2)cc1
Reply: 63

Query: Param readout = GI50; param system = MOLM-13; param query = COc1ccc(NC(=O)Nc2nnc(Sc3ncnc4oc(-c5ccc(OC)cc5)cc34)s2)cc1 ; response: value
Reply: 180

Query: Request: GI50, test system MOLM-13, entry COc1ccc(-c2cc3c(Sc4nnc(NC(=O)Nc5ccccc5)s4)ncnc3o2)cc1
Reply: 117

Query: Observed GI50 on MOLM-13 for O=C(Nc1cccc(Cl)c1)Nc1nnc(Sc2ncnc3oc(-c4ccccc4)cc23)s1 , please.
Reply: 240

Query: Quick check: GI50 on MOLM-13, item O=C(Nc1ccc(Cl)c(C(F)(F)F)c1)Nc1nnc(Sc2ncnc3oc(-c4ccccc4)cc23)s1 ?
Reply: 1220

Query: Lab request: please report GI50 under test system MOLM-13 for COc1ccc(-c2cc3c(Sc4nnc(NC(=O)Nc5ccc(Cl)c(C(F)(F)F)c5)s4)ncnc3o2)cc1
Reply: 5820

Query: GET /values?readout=GI50&system=MOLM-13&item= O=C(Nc1ccc(Cl)cc1)Nc1nnc(Sc2ncnc3oc(-c4ccccc4)cc23)s1
Reply: 297

Query: Form field - read-out: GI50; system: MOLM-13; submitted item: O=C(Nc1ccc(Cl)c(Cl)c1)Nc1nnc(Sc2ncnc3oc(-c4ccccc4)c(-c4ccccc4)c23)s1
Reply: 8660

Query: So what GI50 did O=C(Nc1ccc(Br)cc1)Nc1nnc(Sc2ncnc3oc(-c4ccccc4)cc23)s1 get with MOLM-13?
Reply: 570

Query: Tell me reported GI50 for Cc1ccc(NC(=O)Nc2nnc(Sc3ncnc4oc(-c5ccccc5)cc34)s2)cc1Cl , tested with MOLM-13.
Reply: 375

Query: Value wanted: GI50 (MOLM-13) of entry COc1ccc(-c2cc3c(Sc4nnc(NC(=O)Nc5cccc(Cl)c5)s4)ncnc3o2)cc1
Reply: 1060

Query: GI50 of O=C(Nc1ccccc1)Nc1nnc(Sc2ncnc3oc(-c4ccccc4)cc23)s1 on MOLM-13?
Reply: 87

Query: # query: GI50 | item COc1cccc(NC(=O)Nc2nnc(Sc3ncnc4oc(-c5ccccc5)c(-c5ccccc5)c34)s2)c1 | system: MOLM-13
Reply: 185

Query: For MOLM-13, provide GI50 of Cc1cccc(NC(=O)Nc2nnc(Sc3ncnc4oc(-c5ccccc5)c(-c5ccccc5)c34)s2)c1 please.
Reply: 120

Query: Give recorded GI50 with MOLM-13 for the following compound: O=C(Nc1cccc(F)c1)Nc1nnc(Sc2ncnc3oc(-c4ccccc4)c(-c4ccccc4)c23)s1
Reply: 650

Query: Missing value: GI50, MOLM-13, entry Cc1cccc(NC(=O)Nc2nnc(Sc3ncnc4oc(-c5ccccc5)cc34)s2)c1 . Fill in?
Reply: 105

Query: What reported GI50 corresponds to Cc1ccc(NC(=O)Nc2nnc(Sc3ncnc4oc(-c5ccccc5)c(-c5ccccc5)c34)s2)cc1 on MOLM-13?
Reply: 194

Query: Please state recorded GI50 (tested on MOLM-13) of O=C(Nc1ccc(Cl)c(Cl)c1)Nc1nnc(Sc2ncnc3oc(-c4ccccc4)cc23)s1
Reply: 710

Query: Return GI50 measured with MOLM-13 given this compound: COc1ccc(-c2cc3c(Sc4nnc(NC(=O)Nc5ccc(Cl)cc5)s4)ncnc3o2)cc1
Reply: 1140
